Data provenance is PubChem BioAssay (NCI).

Tested on: COLO 205 colon
Assay: NCI tumour cell line growth inhibition, 48 h
quantityName: log10 of TGI (log10 of the value in µM)
In our notation, the value equals log10 of TGI in µM.

molecule=CC1=C(C)C(=O)C(C2=C(C3=CC(=O)C(C)=C(C)C3=O)C(=O)c3ccccc3C2=O)=CC1=O quantityname="log10 of TGI" experimentalvalue=0.59
molecule="O=C(NC1C=Nc2ccccc2NC1=O)c1ccccc1Cl (stereo not drawn)" quantityname="log10 of TGI" experimentalvalue=1.72
molecule=CN(C)C(=O)Oc1ccc(C(=S)Nc2ccccc2)cc1Br quantityname="log10 of TGI" experimentalvalue=1.74
molecule="CC(C)=CCc1cc(C2COc3cc4c(c(O)c3C2=O)C=CC(C)(C)O4)c(O)cc1O (stereo not drawn)" quantityname="log10 of TGI" experimentalvalue=1.70
molecule=Cc1ccccc1NC(=O)c1cc2ccccc2cc1O quantityname="log10 of TGI" experimentalvalue=1.46
molecule=O=C1COCCN1c1ccc(NCc2cn(C(=O)c3ccc(Cl)cc3)c3ccccc23)cc1 quantityname="log10 of TGI" experimentalvalue=1.34
molecule=c1ccc(/C(=N\Nc2ccc3ccccc3n2)c2ccccn2)cc1 quantityname="log10 of TGI" experimentalvalue=0.71
molecule=N#CCN(Cc1ccccc1)[C@@H]1CCC[C@]1(O)C#Cc1ccc2c(c1)OCO2 quantityname="log10 of TGI" experimentalvalue=1.51

Need log10 of TGI, item O=C1/C(=C/c2ccc(Cl)cc2)Sc2scc(-c3cccc([N+](=O)[O-])c3)[n+]21
0.65

Name the recorded log10 of TGI for CCc1nc(N)nc(N)c1C#CC(C)c1cc(-c2ccnc(C)c2)c2oc(C)nc2c1 (stereo not drawn) .
0.84

Any idea what its log10 of TGI is? The molecule is Cc1ccc(-n2cc(-c3ccc(Cl)cc3)c(C#N)c2N)cc1
1.43

log10 of TGI lookup needed for O=c1[nH]nc(-c2ccccc2)c2c(-c3ccccc3)onc12 , thanks.
1.00

Using the record for CN(C)CC1=Nc2cccc3cccc(c23)N1 , report its log10 of TGI.
0.85

Find the recorded log10 of TGI belonging to C=C1C(=O)O[C@H]2[C@H]1CC/C(CNC(=O)/C=C/c1ccc(Cl)cc1Cl)=C\CC[C@@]1(C)O[C@@H]21 and report it.
0.47
